TEST_SUMMARY: in vivo
Parameters: species or system male rats (Long Evans)
EXPERIMENTAL_CONDITIONS: rat, iv

MOLECULE | half-life, min
N=C(N)NCCC[C@H](NC(=O)[C@@H]1CCCN1C(=O)CC(c1ccccc1)c1ccccc1)C(=O)c1nc2ccccc2s1 [Compound 3] | 6
CN[C@H](Cc1ccccc1)C(=O)N1CCC[C@H]1C(=O)N[C@@H](CCCNC(=N)N)C(=O)c1nc2c(ccc3ccccc32)s1 [Compound 52] | 8
CN[C@H](Cc1ccccc1)C(=O)N1CCC[C@H]1C(=O)N[C@@H](CCCN=C(N)N)C(=O)c1nc2ccccc2o1 [Compound 5] | 18
